assay: clinical; settings: both, human, in vivo
ENDPOINT: half-life

In plain terms, CC(C)c1cnn2c(NCc3ccccc3)cc(NC[C@H]3CCNC[C@@H]3O)nc12 has a documented half-life of ~75 h

----------
assay: clinical; conditions: both, human, in vivo, 180 mg
ENDPOINT: half-life

In plain terms, CC(C)c1cnn2c(NCc3ccccc3)cc(NC[C@H]3CCNC[C@@H]3O)nc12 has a documented half-life of 54.8 to 82.3 h

Hello, the source for this data is paper PMC10366102, in case you need it.
